Here, each record is paired with measured Relative amount of FVII protein (%) data.
Tested on: Factor VII (FVII) protein
protocol details: Measurement of Factor VII (FVII) protein in mouse plasma after FVII-siRNA lipid particles
Type: in vivo, C57BL6/J mice
condition description: 0.1 mg/kg caudal vein, plasma 24 hours after administration, PBS group = 100%
The answer is to be given in %; state only the numeric part.

Recorded Relative amount of FVII protein (%) for CCCCC/C=C\C/C=C\CCCCCCCCC(CCCCCCCC/C=C\C/C=C\CCCCC)OC(=O)OCCN(CCCCCC)CCN(C)C [Example 37] , please?
17

And CCCCCCC(CCCC)COC(=O)CCCCCCCCC(CCCCCCCCC(=O)OCC(CCCC)CCCCCC)OC(=O)OCCN(CC)CCN(CC)CC (stereo not shown) [Example 72] ?
6

And CCCCC/C=C\C/C=C\CCCCCCCCC(CCCCCCCC/C=C\C/C=C\CCCCC)OC(=O)OCCN(CCN(CC)CC)Cc1ccccc1 [Example 51] ?
19

And CCCCCCCCC(=O)OCCN(CCOC(=O)OC(CCCCCC)CCCCCCCCC(=O)OCCC(CCCCC)CCCCC)CCN(CC)CC (stereo not shown) [Example 126] ?
9

And CCCCCCCCC(=O)OCCN(CCOC(=O)OC(CCCCCC)CCCCCCCCC(=O)OCC(CCCCC)CCCCC)CCN(CC)CC (stereo not shown) [Example 130] ?
9

And CCCCCCCC(=O)OCCN(CCOC(=O)OC(CCCCCC)CCCCCCCCC(=O)OCCC(CCCCC)CCCCC)CCN(CC)CC (stereo not shown) [Example 125] ?
5

----------
protocol details: Particle size of nucleic acid lipid particles (Luc2-siRNA)
Type: physicochemical
condition description: compound/DSPC/cholesterol/DMG-PEG2000 50/10/38.5/1.5
Here, each record is paired with measured Particle size (nm) data.
The answer is to be given in nm; state only the numeric part.

Recorded Particle size (nm) for CCCCCC/C=C\CCCCCCCC(=O)OCCCCCCC(CCCCCCOC(=O)CCCCCCC/C=C\CCCCCC)OC(=O)OCCN(CC)CCN(CC)CC [Example 46] , please?
71

And CCCCCCC(CCCC)COC(=O)CCCCCCCCC(CCCCCC)OC(=O)OCCN(CCN(CC)CC)C(C)C (centres unmarked) [Example 84] ?
81

And CCCCCCCCCCC(CCCCCCCCCCC(=O)OCC(CCCC)CCCCCC)OC(=O)OCCN(CC)CCN(CC)CC (centres unmarked) [Example 66] ?
69.8

And CCCCC/C=C\C/C=C\CCCCCCCCN(CCCCCCCC/C=C\C/C=C\CCCCC)C(=O)OCCN(C)CCN1CCOCC1 [Example 5] ?
73.8

And CCCCCC/C=C\COC(=O)CCCCCCCN(CCCCCCCC(=O)OC/C=C\CCCCCC)C(=O)OCCN(C)CCN(C)C [Example 11] ?
217.2

----------
Here, each record is paired with measured Nucleic acid encapsulation rate data.
protocol details: Nucleic acid encapsulation rate of nucleic acid lipid particles (FVII-siRNA)
Type: physicochemical
The answer is to be given in %; state only the numeric part.

Consider the worked cases shown below.
CCCCCCCCCCC(CCCCCCCCC(=O)OCC(CCCC)CCCCCC)OC(=O)OCCN(CCN(CC)CC)C(C)C (centres unmarked) = 97
CCCCCCCCC(=O)OCCN(CCOC(=O)OC(CCCCCC)CCCCCCCCC(=O)OCCC(CCCCC)CCCCC)CCN(CC)CC (centres unmarked) = 85
CCCCC/C=C\C/C=C\CCCCCCCCC(CCCCCCCC/C=C\C/C=C\CCCCC)OC(=O)OCCN(CCN(CC)CC)Cc1ccccc1 = 84
CCCCC/C=C\C/C=C\CCCCCCCC(=O)OCCCCCCC(CCCCCCOC(=O)CCCCCCC/C=C\C/C=C\CCCCC)OC(=O)OCCN(CC)CCN(CC)CC = 79

Recorded Nucleic acid encapsulation rate for `CCCCC/C=C\C/C=C\CCCCCCCCC(CCCCCCCC/C=C\C/C=C\CCCCC)OC(=O)OCCN(CC)CCN(C)C` , please?
67

And CCCCCCCCC(CCCCCC)COC(=O)CCCCCCC(CCCCCC)OC(=O)OCCN(CCN(CC)CC)C(C)C (centres unmarked) ?
75

And `CCCCC/C=C\C/C=C\CCCCCCCCC(CCCCCCCC/C=C\C/C=C\CCCCC)OC(=O)OCCN(CCN(CC)CC)C(C)C` ?
70

And `CCCCC/C=C\C/C=C\CCCCCCCCC(CCCCCCCC/C=C\C/C=C\CCCCC)OC(=O)OCCN(CCC)CCN(C)C` ?
80

And CCCCCCCCCCC(CCCCCCCC)COC(=O)CCCC(CCCCCC)OC(=O)OCCN(CCN(CC)CC)C(C)C (centres unmarked) ?
100

And CCCCCCCCCC(=O)OCCN(CCOC(=O)OC(CCCCCC)CCCC(=O)OCC(CCCC)CCCCCC)CCN(CC)CC (centres unmarked) ?
83
